Source listed as patent US20160251404A1.

target_entity: recombinant human HGF (hepatocyte growth factor) (human, UniProt P14210 32-728)
Sequence (P14210 32-728 limits assumed): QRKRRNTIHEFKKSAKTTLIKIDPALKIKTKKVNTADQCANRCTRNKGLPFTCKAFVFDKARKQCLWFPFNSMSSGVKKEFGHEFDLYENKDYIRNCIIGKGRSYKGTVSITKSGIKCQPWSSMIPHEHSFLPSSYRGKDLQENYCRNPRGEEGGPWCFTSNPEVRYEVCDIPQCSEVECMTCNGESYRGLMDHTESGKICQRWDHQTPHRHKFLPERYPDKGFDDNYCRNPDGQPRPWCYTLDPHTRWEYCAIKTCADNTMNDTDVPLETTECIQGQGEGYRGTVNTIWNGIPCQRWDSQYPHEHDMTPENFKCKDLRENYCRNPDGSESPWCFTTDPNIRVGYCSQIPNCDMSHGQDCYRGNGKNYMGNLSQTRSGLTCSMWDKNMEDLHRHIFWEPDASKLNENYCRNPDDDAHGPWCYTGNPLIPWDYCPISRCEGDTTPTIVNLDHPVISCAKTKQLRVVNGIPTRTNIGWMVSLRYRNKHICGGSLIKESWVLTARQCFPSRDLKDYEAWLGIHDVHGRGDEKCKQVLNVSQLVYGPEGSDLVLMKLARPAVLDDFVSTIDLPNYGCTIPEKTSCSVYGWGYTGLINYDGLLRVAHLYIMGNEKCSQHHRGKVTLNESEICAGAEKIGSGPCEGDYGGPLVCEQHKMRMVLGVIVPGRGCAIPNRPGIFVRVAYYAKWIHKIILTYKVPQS
experiment_notes: cell-based or functional assay
Tag: 1.0 if measured % inhibition of HGF stimulated c-Met phosphorylation in A549 cells is not below 90%, 0.0 if it is.

Worked set:
binder	cat
DARPin #42 (designed binder) MRGSHHHHHHGSDLGKKLLEAARAGQDDEVRILMANGADVNAKYEDGLTPLHLAAFYGHLEIVEVLLKHGADVNATDAWGHTPLHLAAHYGHLEIVEVLLKYGADVNAIDTLGYTPLHLAANFGHLEIVEVLLKNGADVNAQDKFGKTAFDISIDNGNEDLAEILQKLN	1.0
DARPin #57 (designed binder) MRGSHHHHHHGSDLGKKLLEAARAGQDDEVRILMANGADVNAHDYLGLTPLHLAASDGHLEIVEVLLKHGADVNAYDYNGLTPLHLAANNGHLEIVEVLLKYGADVNAFDVAGYTPLHLAAYFGHLEIVEVLLKYGADVNAQDKFGKTAFDISIDNGNEDLAEILQKLN	1.0

Problem: API: above_or_equal(metric=% inhibition of HGF stimulated c-Met phosphorylation in A549 cells, cutoff=90%) for item DARPin #61 (designed binder) MRGSHHHHHHGSDLGKKLLEAARAGQDDEVRILMANGADVNAEDYLGHTPLHLAASTGHLEIVEVLLKYGADVNAKDRNGLTPLYLAANNGHLEIVEDLLKYGADVNADDDNGTTPLHLAAIFGHLEIVEVLLKYGADVNAQDKFGKTAFDISIDNGNEDLAEILQKLN
Solution: 0.0
